Where do the numbers come from? From patent US20260001910A1.

>  <Compound>
CC(C)C[C@@H](NC(=O)[C@@H](Cc1ccccc1)NC(=O)CNC(=O)CNC(=O)[C@H](N)Cc1ccc(O)cc1)C(=O)N[C@H](CCCNC(=N)N)C(=O)N[C@H](CCCNC(=N)N)C(N)=O [SEQ ID NO. 1, tyr-Gly-Gly-phe-leu-arg-arg-NH2]

>  <viability at 100 µM (%)>
95.9

$$$$

###

>  <Structure smiles string>
CC(C)C[C@@H](NC(=O)[C@@H](Cc1ccccc1)NC(=O)CNC(=O)CNC(=O)[C@H](N)Cc1ccc(O)cc1)C(=O)N[C@H](CCCNC(=N)N)C(=O)N[C@H](CCCNC(=N)N)C(N)=O

>  <Display unit>
%

>  <viability at 100 µM>
93.4

$$$$
